- protocolNotes: Chemical stability of salt forms (change in purity by HPLC upon storage)
- Type: physicochemical
- measurementContext: 40° C. and 75% relative humidity, 7 days, HPLC Method D
- Method: The chemical stability of each salt form was evaluated by determining the change in purity of the sample upon storage of the salt form at 40° C. […] Approximately 50-100 mg of the salt form was then placed in two heat sealed low density polyethylene bags. […] After 7 days, the bags were removed and the contents were analyzed by HPLC.
measuredQuantity: % Change in Impurity A

Use the examples below as a reference point.
{"columns": ["compound", "% Change in Impurity A"],
 "data": [
  ["COc1ccncc1CN1CCC(N(CCCCCCCN2CC[C@@H](C(C(N)=O)(c3ccccc3)c3ccccc3)C2)C(C)C)CC1.O=C(O)c1cc(=O)[nH]c(=O)[nH]1.O=C(O)c1cc(=O)[nH]c(=O)[nH]1 [Example 11C]", "0.45%"],
  ["COc1ccncc1CN1CCC(N(CCCCCCCN2CC[C@@H](C(C(N)=O)(c3ccccc3)c3ccccc3)C2)C(C)C)CC1.O=C(O)c1ccccc1O.O=C(O)c1ccccc1O [Example 11D]", "0.17%"]
]}

Q: Annotate the compound COc1ccncc1CN1CCC(N(CCCCCCCN2CC[C@@H](C(C(N)=O)(c3ccccc3)c3ccccc3)C2)C(C)C)CC1.O=S(=O)(O)O [Example 11A] with its measured % Change in Impurity A.
Result: <0.1%

Q: Annotate the compound COc1ccncc1CN1CCC(N(CCCCCCCN2CC[C@@H](C(C(N)=O)(c3ccccc3)c3ccccc3)C2)C(C)C)CC1.CS(=O)(=O)O.CS(=O)(=O)O [Example 9] with its measured % Change in Impurity A.
Result: <0.1%

Q: Annotate the compound COc1ccncc1CN1CCC(N(CCCCCCCN2CC[C@@H](C(C(N)=O)(c3ccccc3)c3ccccc3)C2)C(C)C)CC1.O=C(O)c1ccccc1O.O=C(O)c1ccccc1O.O=C(O)c1ccccc1O [Example 11E] with its measured % Change in Impurity A.
Result: 1.22%
